Each record here notes measured inhibition at 10 µM.
- testedOn: [^3 H]-imipramine receptor (human platelet membranes) (Homo sapiens)
- Construct: Platelet membranes were obtained using the procedure described by Wennogle, L. P., et al; tissue New York Blood Center; host or cells: human platelets (washed, sonicated membranes)
- Sequence (P31645 whole entry): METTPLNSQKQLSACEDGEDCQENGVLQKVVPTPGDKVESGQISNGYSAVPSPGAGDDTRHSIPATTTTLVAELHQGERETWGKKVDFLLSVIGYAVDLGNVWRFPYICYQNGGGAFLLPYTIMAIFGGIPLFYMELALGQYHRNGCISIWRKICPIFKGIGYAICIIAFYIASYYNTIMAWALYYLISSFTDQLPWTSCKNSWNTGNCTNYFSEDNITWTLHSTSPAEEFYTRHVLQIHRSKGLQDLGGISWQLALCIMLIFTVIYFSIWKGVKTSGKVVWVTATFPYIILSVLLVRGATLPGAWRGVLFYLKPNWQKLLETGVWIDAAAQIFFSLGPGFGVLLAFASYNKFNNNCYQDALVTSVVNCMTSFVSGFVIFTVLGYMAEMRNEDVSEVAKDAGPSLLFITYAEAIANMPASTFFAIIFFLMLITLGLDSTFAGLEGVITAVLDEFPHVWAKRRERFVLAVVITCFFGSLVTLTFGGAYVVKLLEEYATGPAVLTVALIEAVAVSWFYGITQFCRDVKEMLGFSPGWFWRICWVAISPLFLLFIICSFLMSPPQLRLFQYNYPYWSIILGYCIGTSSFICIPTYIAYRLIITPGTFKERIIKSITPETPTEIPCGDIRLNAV
- testDescription: Inhibition of [^3 H]-imipramine binding to human platelet membranes
- assaySetup: 1.5 h, 10 μm test compound, 90 minutes at 0° C., duplicate; more than 50% considered active
Counter-ions that a name gives are not always drawn.
assayEndpoint: inhibition at 10 µM (%)

[
  {
    "compound": "COc1cccc(CN2CCN(CC(=O)N3CC=C(c4cccc(C(F)(F)F)c4)n4cnc(C#N)c43)CC2)c1 [Example 6, dihydrochloride]",
    "unitsText": "%",
    "measuredValue": 75
  },
  {
    "compound": "N#Cc1ncn2c1N(C(=O)CCN1CCN(CCCOc3ccccc3)CC1)CC=C2c1cccc(C(F)(F)F)c1 [Example 21]",
    "unitsText": "%",
    "measuredValue": 66
  },
  {
    "compound": "N#Cc1ncn2c1N(C(=O)CCN1CCN(Cc3ccc(Cl)cc3)CC1)CC=C2c1cccc(C(F)(F)F)c1 [Example 20]",
    "unitsText": "%",
    "measuredValue": 75
  },
  {
    "compound": "N#Cc1ncn2c1N(C(=O)CCN1CCN(Cc3c(Cl)cccc3Cl)CC1)CC=C2c1cccc(C(F)(F)F)c1 [Example 23]",
    "unitsText": "%",
    "measuredValue": 98
  }
]
